- targetDesc: RET (Homo sapiens, UniProt P07949)
- Sequence (P07949 29-1114): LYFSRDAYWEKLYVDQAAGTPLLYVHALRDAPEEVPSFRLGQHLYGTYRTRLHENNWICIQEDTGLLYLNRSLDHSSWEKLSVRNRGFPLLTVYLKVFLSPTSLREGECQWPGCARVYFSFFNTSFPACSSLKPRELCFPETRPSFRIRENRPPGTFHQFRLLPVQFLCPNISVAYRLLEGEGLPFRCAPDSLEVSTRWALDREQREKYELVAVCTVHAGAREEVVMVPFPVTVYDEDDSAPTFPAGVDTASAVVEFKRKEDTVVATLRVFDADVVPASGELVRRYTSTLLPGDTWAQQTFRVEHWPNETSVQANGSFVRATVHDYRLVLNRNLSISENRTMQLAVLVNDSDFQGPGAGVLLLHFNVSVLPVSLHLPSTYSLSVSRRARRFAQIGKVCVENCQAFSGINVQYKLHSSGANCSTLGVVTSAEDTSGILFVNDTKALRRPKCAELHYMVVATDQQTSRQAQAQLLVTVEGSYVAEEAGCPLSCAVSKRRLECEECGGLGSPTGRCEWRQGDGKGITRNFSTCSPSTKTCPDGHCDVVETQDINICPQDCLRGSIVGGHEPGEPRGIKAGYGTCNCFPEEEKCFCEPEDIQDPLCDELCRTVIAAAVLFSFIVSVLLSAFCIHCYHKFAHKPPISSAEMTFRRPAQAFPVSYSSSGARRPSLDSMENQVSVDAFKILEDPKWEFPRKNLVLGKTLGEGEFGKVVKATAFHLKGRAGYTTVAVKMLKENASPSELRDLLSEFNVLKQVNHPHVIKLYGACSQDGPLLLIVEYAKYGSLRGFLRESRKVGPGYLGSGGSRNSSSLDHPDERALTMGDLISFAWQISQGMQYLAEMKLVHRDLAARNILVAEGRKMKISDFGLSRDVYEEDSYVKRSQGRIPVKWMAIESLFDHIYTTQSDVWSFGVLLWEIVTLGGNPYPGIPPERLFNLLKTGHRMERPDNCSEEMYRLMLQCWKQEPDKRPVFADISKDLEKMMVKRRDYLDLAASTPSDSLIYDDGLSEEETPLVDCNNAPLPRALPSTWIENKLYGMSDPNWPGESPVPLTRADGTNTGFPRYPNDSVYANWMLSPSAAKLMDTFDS
reportedProperty: IC50 (nM)

[[record]]
compound = "COc1ccc(CN2C3CC2CN(c2ccc(-c4cc(/C=C/C(C)(C)O)cn5ncc(C#N)c45)cn2)C3)cn1 [Embodiment 127]"
readoutunits = "nM"
experimentalvalue = 0.26

[[record]]
compound = "COc1ncc(CN2C3CC2CN(c2ccc(-c4cc(OC[C@H]5C[C@@](C)(O)C5)cn5ncc(C#N)c45)cn2)C3)cc1F [Embodiment 161]"
readoutunits = "nM"
experimentalvalue = 0.37

[[record]]
compound = "CC(C)(O)COc1cc(-c2ccc(N3CCC(N)(C(=O)N4CCc5ccccc54)CC3)nc2)c2c(C#N)cnn2c1 [Embodiment 62]"
readoutunits = "nM"
experimentalvalue = 1.3

